Biological target: mouse B6 MHC class I antigens (H-2b: D^b or K^b) on the surface of RMA-S cells (mouse)
Assay: RMA-S class I stabilisation, peptide 25 ug/ml, flow cytometry with FITC anti-D^b or anti-K^b, MFI against medium alone
readout-name: Binding Affinity to Mouse MHC Class I (% increase of class I on RMA-S cells)
Note: state the figure and append the unit.

Binding Affinity to Mouse MHC Class I (% increase of class I on RMA-S cells) for GCNKRYFKL [WT1 peptide p329-337 (…)] ? 1.2%

Suppose we examine the binder CMTWNQMNL [WT1 peptide p235-243 (…)] ; what Binding Affinity to Mouse MHC Class I (% increase of class I on RMA-S cells) value has been reported? 33.6%

Suppose we examine the binder NLYQMTSQL [WT1 peptide p225-233 (…)] ; what Binding Affinity to Mouse MHC Class I (% increase of class I on RMA-S cells) value has been reported? 5.8%

What value of Binding Affinity to Mouse MHC Class I (% increase of class I on RMA-S cells) has been reported for the following binder? ALLPAVPSL [WT1 peptide p10-18 human (…)] 2.2%

Recorded Binding Affinity to Mouse MHC Class I (% increase of class I on RMA-S cells) for SCLESQPAI [WT1 peptide p136-144 human (…)] , please? 52%

Any idea what its Binding Affinity to Mouse MHC Class I (% increase of class I on RMA-S cells) is? The binder is YSSDNLYQM [WT1 peptide p221-229 (…)] 0.8%

Fill blank: measured Binding Affinity to Mouse MHC Class I (% increase of class I on RMA-S cells) of the binder QMTSQLECM [WT1 peptide p228-236 (…)] is ____. 1.2%

Which Binding Affinity to Mouse MHC Class I (% increase of class I on RMA-S cells) value belongs to NQMNLGATL [WT1 peptide p239-247 (…)] ? 1%
